- System: SNU-16 (human gastric cancer)
- measurement-description: cells
- Assay type: cell-based
- measurement-conditions: Table 4; SNU-16 human gastric cancer cells; read-out: IC50 (nM) SNU-16
Below: a set of entries, each annotated with reported IC50.

chemical-structure: CC[C@@H](C(=O)[C@@H](C)[C@@H](O)[C@H](C)[C@@H]1O[C@@H]([C@@H](CC)C(=O)O)CC[C@@H]1C)[C@H]1O[C@]2(C=C[C@@H](NC(=O)OC(CCl)CCl)[C@]3(CC[C@@](C)([C@H]4CC[C@](O)(CC)[C@H](C)O4)O3)O2)[C@H](C)C[C@@H]1C
IC50 [nM]: 400
//
chemical-structure: CC[C@@H](C(=O)[C@@H](C)[C@@H](O)[C@H](C)[C@@H]1O[C@@H]([C@@H](CC)C(=O)O)CC[C@@H]1C)[C@H]1O[C@]2(C=C[C@@H](NC(=O)c3ccccc3Cl)[C@]3(CC[C@@](C)([C@H]4CC[C@](O)(CC)[C@H](C)O4)O3)O2)[C@H](C)C[C@@H]1C
IC50 [nM]: 339
